- TEST_SUMMARY: Pharmacokinetic measurements in T2DM rats (plasma concentrations by UPLC-MS/MS, two-compartment PK model)
- Type: in vivo
- DETAILS: rat, plasma, po, 10 mg/kg, T2DM rats, i.g. 10 mg/kg SAX, two-compartment model with first order absorption, mean (n = 3); read-out: t1/2a (distribution phase half-life) (converted)
PROPERTY: half-life (min)

1. N#C[C@@H]1C[C@@H]2C[C@@H]2N1C(=O)[C@@H](N)C12CC3CC(CC(O)(C3)C1)C2: 4.8

* * *

- TEST_SUMMARY: Pharmacokinetic measurements in T2DM rats (plasma concentrations by UPLC-MS/MS, two-compartment PK model)
- Type: in vivo
- DETAILS: rat, plasma, po, 10 mg/kg, T2DM rats, i.g. 10 mg/kg SAX, two-compartment model with first order absorption, mean (n = 3); read-out: t1/2β (elimination half-life) (converted)
PROPERTY: half-life

1) N#C[C@@H]1C[C@@H]2C[C@@H]2N1C(=O)[C@@H](N)C12CC3CC(CC(O)(C3)C1)C2: 6.13 h
